- method: Partition coefficient, log D of the compound at pH 7.4 by shake flask method
- condition_details: octanol/water
parameter: logD
Reply: number alone, nothing else.

Cc1cn([C@H]2CCCN([C@@H](C)c3ccc(C(=O)O)c(Oc4cccc(Cl)c4)c3)C2)c(=O)[nH]c1=O: -0.3
Cc1cn([C@H]2CCCN(Cc3ccc(C(=O)O)c(Oc4cccc(F)c4)c3)C2)c(=O)[nH]c1=O: -1

Please give the measured logD for this compound: Cc1cn([C@H]2CCCN([C@H](C)c3ccc(C(=O)O)c(Oc4cccc(Cl)c4)c3)C2)c(=O)[nH]c1=O
-0.26

* * *

- tested_target: Thymidylate kinase (Homo sapiens)
- Sequence (P23919 whole entry): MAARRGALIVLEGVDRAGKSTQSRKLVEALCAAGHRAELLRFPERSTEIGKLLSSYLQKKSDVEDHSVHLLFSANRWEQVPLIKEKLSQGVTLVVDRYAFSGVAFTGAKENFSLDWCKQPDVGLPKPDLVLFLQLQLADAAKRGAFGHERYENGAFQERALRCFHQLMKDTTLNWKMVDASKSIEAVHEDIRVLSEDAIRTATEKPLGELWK
- method: Inhibition of human thymidylate kinase assessed as effect on ATP production by Escherichia coli DdlA and Malachite green reagent based assay
parameter: IC50 (µM)
Report the value in µM with no unit label.

Record excerpt, results attached:
Cc1cn([C@H]2CCCN([C@H](CC(C)(C)C)c3ccc(C(=O)O)c(Oc4cccc(Br)c4)c3)C2)c(=O)[nH]c1=O: 62
CCCCC[C@H](c1ccc(C(=O)O)c(Oc2cccc(Br)c2)c1)N1CCC[C@H](n2cc(C)c(=O)[nH]c2=O)C1: 32
CCC(C)(C)C[C@H](c1ccc(C(=O)O)c(Oc2cccc(Cl)c2)c1)N1CCC[C@H](n2cc(C)c(=O)[nH]c2=O)C1: 43.4
Cc1cn([C@H]2CCCN([C@H](C)c3ccc(C(=O)O)c(Oc4cccc(Cl)c4)c3)C2)c(=O)[nH]c1=O: 150

Query compound follows.
// fetch Thymidylate kinase (Homo sapiens) IC50 for CCC[C@H](c1ccc(C(=O)O)c(Oc2cccc(Cl)c2)c1)N1CCC[C@H](n2cc(C)c(=O)[nH]c2=O)C1
150

Cited source: ChEMBL document CHEMBL2177095
